Target: T1, Histidine-tagged human CD40 protein (hCD40-His) (human, UniProt P25942 21-193)
T1 construct: not shown: histidine tag
T1 sequence (P25942 21-193 limits assumed): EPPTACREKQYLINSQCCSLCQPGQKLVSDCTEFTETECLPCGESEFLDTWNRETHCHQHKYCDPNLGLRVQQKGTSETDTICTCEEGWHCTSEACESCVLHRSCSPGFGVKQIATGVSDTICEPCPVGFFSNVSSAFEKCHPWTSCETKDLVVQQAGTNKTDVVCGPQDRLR
Assay: SPR, Biacore T200; antibody on Protein A chip, hCD40-His injected; 1:1 fit
Procedure: The binding affinity of the anti-hCD40 antibodies were measured using surface plasmon resonance (SPR) using Biacore (Biacore, INC, Piscataway N.J.) T200 biosensor equipped with pre-immobilized Protein A sensor chips. Anti-hCD40 antibodies were collected by transfecting CHO-S cells and then purified. […] Dissociation was monitored for 300 seconds. […]
Reported values of kon for individual entries
Number only, in M⁻¹ s⁻¹; omit the unit.

- binder: "6A7-H2K3-IgG4 (antibody, V domains shown, Humanized) VH: QVQLVQSGAEVKKPGASVKVSCKASGYTFISYYIYWVRQAPGQGLEWIGGINPRNGGTNFNEKFKSRATLTVDTSISTAYMELSRLRSEDTAVYYCARHGNGVYWGQGTTVTVSS VL: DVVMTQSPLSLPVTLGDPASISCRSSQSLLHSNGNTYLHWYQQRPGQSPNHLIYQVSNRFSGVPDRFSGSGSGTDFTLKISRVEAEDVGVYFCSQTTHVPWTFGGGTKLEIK"
  unit-abbrev: "M⁻¹ s⁻¹"
  measured: 45300

// returns reported kon for input 7F10-mHvKv-IgG1-N297A (antibody, V domains shown, Chimeric; human IgG1 constant regions with N297A mutation (EU numbering) in the Fc region) VH: EVKLVESGGGLVQPGGSLKLSCATSGFTFSDYYMYWVRQTPEKRLEWVAYISYGGDSTFYPDTVRGRFTISRDNAKNALYLQMSRLKSEDTAVYYCARPAPSAHSYYLDYWGQGTTLTVSS VL: DIQMTQTTSSLSASLGDRVTISCRASQDISNYLNWYQQKPDGTVKLLIYYTSRLHSGLPSRFSGSGSGTDYSLTISNLEQEDIATYYCQQGKTLPFTFASGTKLEIK
150000

// returns reported kon for input 4H6-H3K2-IgG4 (antibody, V domains shown, Humanized) VH: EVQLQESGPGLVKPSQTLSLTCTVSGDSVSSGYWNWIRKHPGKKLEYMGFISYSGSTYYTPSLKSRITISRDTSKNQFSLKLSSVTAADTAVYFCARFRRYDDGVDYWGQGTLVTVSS VL: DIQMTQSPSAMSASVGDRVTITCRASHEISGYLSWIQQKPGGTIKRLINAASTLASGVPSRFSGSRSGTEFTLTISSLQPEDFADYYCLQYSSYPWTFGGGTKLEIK
401000

// returns reported kon for input 6A7-H4K2-IgG4 (antibody, V domains shown, Humanized) VH: QVQLVQSGAEVKKPGASVKLSCKASGYTFISYYIYWVKQAPGQGLEWIGGINPRNGGTNFNEKFKSRATLTVDTSISTAYMELSRLRSEDTAVYYCTRHGNGVYWGQGTTLTVSS VL: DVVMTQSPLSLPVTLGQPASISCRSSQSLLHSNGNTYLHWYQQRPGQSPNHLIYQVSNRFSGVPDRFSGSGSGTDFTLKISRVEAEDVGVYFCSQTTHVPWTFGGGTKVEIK
105000

// returns reported kon for input 4H6-H2K3-IgG4 (antibody, V domains shown, Humanized) VH: EVQLQESGPGLVKPSQTLSLTCTVSGDSVSSGYWNWIRKHPGKKLEWIGFISYSGSTYYTPSLKSRVTISRDTSKNQFSLKLSSVTAADTAVYYCARFRRYDDGVDYWGQGTLVTVSS VL: DIQMTQSPSAMSASVGDRVTITCRASHEISGYLSWIQQKPGGTIKRLINAASTLASGVPSRFSGSRSGTEYTLTISSLQPEDFADYYCLQYSSYPWTFGGGTKLEIK
260000
